Biological target: HIF-1 (HIF-1alpha/HIF-1beta (ARNT) heterodimer) (Homo sapiens?, UniProt Q16665;P27540 Q16665:1-826,P27540:2-789)
Sequence (Q16665 whole entry, chain 1 of 2): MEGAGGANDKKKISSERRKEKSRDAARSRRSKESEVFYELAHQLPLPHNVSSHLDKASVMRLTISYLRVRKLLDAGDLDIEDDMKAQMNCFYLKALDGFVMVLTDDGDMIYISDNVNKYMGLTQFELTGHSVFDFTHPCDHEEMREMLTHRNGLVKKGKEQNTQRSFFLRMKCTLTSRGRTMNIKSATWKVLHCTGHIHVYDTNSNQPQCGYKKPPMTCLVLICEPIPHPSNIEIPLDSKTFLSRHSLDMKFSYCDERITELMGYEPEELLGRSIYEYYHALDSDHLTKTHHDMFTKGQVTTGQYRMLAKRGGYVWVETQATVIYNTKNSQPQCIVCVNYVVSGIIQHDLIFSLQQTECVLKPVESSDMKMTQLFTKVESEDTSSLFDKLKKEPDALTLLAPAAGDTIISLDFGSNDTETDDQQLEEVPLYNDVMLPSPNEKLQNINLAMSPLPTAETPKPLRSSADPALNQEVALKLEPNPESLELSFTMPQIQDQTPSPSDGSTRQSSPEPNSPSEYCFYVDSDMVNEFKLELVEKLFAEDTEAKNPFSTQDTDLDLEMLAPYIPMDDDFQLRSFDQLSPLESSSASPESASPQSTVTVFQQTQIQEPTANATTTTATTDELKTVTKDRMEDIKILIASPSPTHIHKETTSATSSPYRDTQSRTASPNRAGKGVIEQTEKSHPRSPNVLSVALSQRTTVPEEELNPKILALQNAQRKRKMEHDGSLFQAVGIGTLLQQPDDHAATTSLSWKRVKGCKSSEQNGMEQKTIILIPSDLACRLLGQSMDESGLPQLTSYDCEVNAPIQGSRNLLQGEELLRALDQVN
Sequence (P27540 2-789, chain 2 of 2): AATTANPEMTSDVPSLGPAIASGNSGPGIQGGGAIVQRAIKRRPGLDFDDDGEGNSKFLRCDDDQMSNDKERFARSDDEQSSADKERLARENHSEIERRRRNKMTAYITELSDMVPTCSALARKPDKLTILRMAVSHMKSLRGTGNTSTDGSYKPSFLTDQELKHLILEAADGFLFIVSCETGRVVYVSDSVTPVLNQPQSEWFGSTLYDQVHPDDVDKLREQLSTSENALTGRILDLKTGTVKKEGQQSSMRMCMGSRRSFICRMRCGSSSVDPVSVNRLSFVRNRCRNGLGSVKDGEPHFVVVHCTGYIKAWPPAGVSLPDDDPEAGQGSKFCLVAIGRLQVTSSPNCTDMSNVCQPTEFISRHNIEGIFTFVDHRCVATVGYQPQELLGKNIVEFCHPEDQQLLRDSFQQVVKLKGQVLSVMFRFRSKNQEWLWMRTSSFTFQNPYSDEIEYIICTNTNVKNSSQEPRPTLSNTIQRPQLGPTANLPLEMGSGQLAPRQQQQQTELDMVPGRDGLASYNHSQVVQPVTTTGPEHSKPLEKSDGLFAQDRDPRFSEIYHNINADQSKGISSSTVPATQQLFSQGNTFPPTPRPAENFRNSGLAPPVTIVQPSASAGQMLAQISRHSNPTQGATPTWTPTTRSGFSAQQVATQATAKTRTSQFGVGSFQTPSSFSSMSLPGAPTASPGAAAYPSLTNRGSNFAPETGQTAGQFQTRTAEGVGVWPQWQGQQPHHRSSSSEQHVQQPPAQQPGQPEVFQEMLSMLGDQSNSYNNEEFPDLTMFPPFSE
Assay: competition; TransAM
Settings: protein: extract; tags: none (endogenous, nuclear extract)
OBSERVABLE: binding signal (ratio)
Return type: number; implicit unit ratio.

// worked examples, binding signal included
# BINDER, ENDPOINT UNIT, binding signal
measured = [
    ("decoy 983 (dsDNA) DNA 1: CCAGCGTACGTGTCTCAGG DNA 2: CCTGAGACACGTACGCTGG", "ratio", 1.3),
    ("decoy 999 (dsDNA) DNA 1: CCATGGCACGTGCCTCAGG DNA 2: CCTGAGGCACGTGCCATGG", "ratio", 1.3),
]

Consider now this further binder.
Qu. Which measured binding signal value corresponds to decoy 807/808 (dsDNA) DNA 1: TCTGTACGTGACCACACTCACCTC DNA 2: GAGGTGAGTGTGGTCACGTACAGA ?
Ans. 2.76
